B1: CPEB3 Ribozyme (parent)
chain: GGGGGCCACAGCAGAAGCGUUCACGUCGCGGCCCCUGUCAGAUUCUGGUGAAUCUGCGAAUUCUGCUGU

Variants of: B1
ASSAY_INFO: self-cleavage, relative activity (ratio to wild type); higher = more cleavage; co-transcriptional
Values of self-cleavage greater than or equal to 0.8 map to yes; values below map to no.

Worked examples, 5 variants total:
> print(dat)
   mutant.id  qualitative.label
1  A16G A42C                 no
2  G14U C22U                 no
3  C35A G37C                 no
4  A16U U61A                yes
5   G2A G68C                 no

Is reported self-cleavage greater than or equal to 0.8 here: G4C U69A yes

Is the recorded value of self-cleavage equal to or greater than 0.8 for this variant? U49G A60G yes

Does the reported self-cleavage for C22U U38C fall at or above the 0.8 mark? no

// inclusive: self-cleavage at least 0.8? input: U55G C63G no

Given the entry G47A U69A , answer whether its self-cleavage meets or surpasses 0.8. yes

Does the reported self-cleavage for G4A C34A fall at or above the 0.8 mark? no

Given the entry A23U G48A , answer whether its self-cleavage meets or surpasses 0.8. yes

I'd appreciate it if you could say whether G1C C66A has self-cleavage at least equal to 0.8. no

Item U21C C32G with self-cleavage of 0.8 or above? no
